The reported numbers originate from ChEMBL document CHEMBL2016448.

Assay: AUC (0 to last) in Sprague-Dawley rat at 0.3 mg/kg, iv
Type: ADME, organism-based
Parameters: time 0 - last, dose 0.3 mg/kg, route intravenous
Details: plasma
ENDPOINT: AUC(0-t) (ng·h/mL)
Please state the figure in ng·h/mL; there is no need to write the unit.

# AUC(0-t) of Cc1cc(C)cc(C[C@H]2CCCCN2C(=O)CN2C(=O)[C@@H](Cc3n[nH]c4ccccc34)c3nnc(-c4ccccc4)n3-c3ccccc32)c1 = 29

* * *

Experiment: AUC (0 to last) in Sprague-Dawley rat at 6 mg/kg, po
Assay type: ADME, organism-based
Design: dose 6 mg/kg, route oral, time 0 - last
Settings: plasma
ENDPOINT: AUC(0-t)
Please state the number and follow it with the unit.

# AUC(0-t) of Cc1cc(C)cc(C[C@H]2CCCCN2C(=O)CN2C(=O)[C@@H](Cc3n[nH]c4ccccc34)c3nnc(-c4ccccc4)n3-c3ccccc32)c1 = 0.74 ng·h/mL

* * *

Experiment: Oral bioavailability in Sprague-Dawley rat at 6 mg/kg
Type: ADME, organism-based
Settings: in vivo
ENDPOINT: bioavailability (%)
Please state the figure in %; there is no need to write the unit.

# bioavailability of Cc1cc(C)cc(C[C@H]2CCCCN2C(=O)CN2C(=O)[C@@H](Cc3n[nH]c4ccccc34)c3nnc(-c4ccccc4)n3-c3ccccc32)c1 = 0.13

* * *

Test system: Plasma
Assay: Plasma clearance in Sprague-Dawley rat at 3 mg/kg, iv
Assay type: ADME, organism-based
Design: dose 3 mg/kg, route intravenous
Settings: in vivo
ENDPOINT: clearance (mL/min/kg)
Please state the figure in mL/min/kg; there is no need to write the unit.

# clearance of CC(C)N(Cc1ccccc1)C(=O)CN1C(=O)[C@@H](Cc2c[nH]c3ccccc23)c2nnc(-c3ccccc3)n2-c2ccccc21 = 41.7

* * *

Target: Cholecystokinin receptor type A (Homo sapiens)
Sequence (whole entry): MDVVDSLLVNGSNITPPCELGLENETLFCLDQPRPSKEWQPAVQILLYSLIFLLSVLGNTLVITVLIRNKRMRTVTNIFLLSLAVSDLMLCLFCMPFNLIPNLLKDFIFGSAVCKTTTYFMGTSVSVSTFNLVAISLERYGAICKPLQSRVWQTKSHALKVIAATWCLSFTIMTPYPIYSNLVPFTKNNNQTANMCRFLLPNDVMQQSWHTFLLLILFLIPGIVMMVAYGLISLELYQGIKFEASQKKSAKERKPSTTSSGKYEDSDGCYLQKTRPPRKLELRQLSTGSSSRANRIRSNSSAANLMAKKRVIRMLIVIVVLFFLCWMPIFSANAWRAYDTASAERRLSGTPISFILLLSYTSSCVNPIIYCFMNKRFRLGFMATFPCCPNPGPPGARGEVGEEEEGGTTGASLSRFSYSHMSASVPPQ
Assay: Agonist activity at human CCK1 receptor assessed as increase in CCK8-induced calcium release incubated in dark for 30 mins followed by light incubation for 30 mins measured by FLIPR assay relative to CCK8
Type: functional
ENDPOINT: Efficacy (%)
Please state the figure in %; there is no need to write the unit.

# Efficacy of COCCC1CCCCN1C(=O)CN1C(=O)[C@@H](Cc2n[nH]c3ccccc23)c2nnc(-c3ccccc3)n2-c2ccccc21 (single isomer, unassigned) = 100

# Efficacy of O=C1C(Cc2c[nH]c3ccccc23)c2nnc(-c3ccccc3)n2-c2ccccc2N1CC(=O)N1CCCCC1CC1CCCCC1 (mixture of isomers) = 88

# Efficacy of CC(C)N(Cc1ccccc1)C(=O)CN1C(=O)[C@@H](Cc2n[nH]c3ccccc23)c2nnc(-c3ccccc3)n2-c2ccccc21 = 72

# Efficacy of O=C1C(Cc2c[nH]c3ccccc23)c2nnc(-c3ccccc3)n2-c2ccccc2N1CC(=O)N1CCCCC1Cc1ccccn1 (mixture of isomers) = 105
